Hello, the source for this data is paper PMC4332700, in case you need it.

tested on: α-synuclein; test: Inhibition of HFIP-induced α-syn amyloid formation; format: biochemical; conditions: 1 molar equiv. inhibitor; converted from the %-of-control ThT and CD values
ENDPOINT LABEL: %-Inhib. of HFIP-induced α-syn amyloid formation

Below, 4 substances whose answers are already recorded.
[
  {
    "SUBSTANCE": "KCLTVW-IpGK-WITVCA (disulfide) [WW2-DS]",
    "RECORDED RESULT": "< 30%"
  },
  {
    "SUBSTANCE": "GKWITVS-IpPK-KLTVWIp [cp-WW2]",
    "RECORDED RESULT": "~ 35%"
  },
  {
    "SUBSTANCE": "(RYTTVCIRKYE)2 (disulfide) [RY-VCI-YE]",
    "RECORDED RESULT": "~ 50%"
  },
  {
    "SUBSTANCE": "(RWTTHCHRKWE)2 (disulfide) [RW-HCH-WE]",
    "RECORDED RESULT": "~ 65%"
  }
]

Lab note: next substance to report on.
I looked up KKLTVW-IpGK-WITVSA [WW2] and its %-Inhib. of HFIP-induced α-syn amyloid formation for α-synuclein was ~ 50%
